# Target Desc: UniProt:P00519
# Sequence (P00519 whole entry): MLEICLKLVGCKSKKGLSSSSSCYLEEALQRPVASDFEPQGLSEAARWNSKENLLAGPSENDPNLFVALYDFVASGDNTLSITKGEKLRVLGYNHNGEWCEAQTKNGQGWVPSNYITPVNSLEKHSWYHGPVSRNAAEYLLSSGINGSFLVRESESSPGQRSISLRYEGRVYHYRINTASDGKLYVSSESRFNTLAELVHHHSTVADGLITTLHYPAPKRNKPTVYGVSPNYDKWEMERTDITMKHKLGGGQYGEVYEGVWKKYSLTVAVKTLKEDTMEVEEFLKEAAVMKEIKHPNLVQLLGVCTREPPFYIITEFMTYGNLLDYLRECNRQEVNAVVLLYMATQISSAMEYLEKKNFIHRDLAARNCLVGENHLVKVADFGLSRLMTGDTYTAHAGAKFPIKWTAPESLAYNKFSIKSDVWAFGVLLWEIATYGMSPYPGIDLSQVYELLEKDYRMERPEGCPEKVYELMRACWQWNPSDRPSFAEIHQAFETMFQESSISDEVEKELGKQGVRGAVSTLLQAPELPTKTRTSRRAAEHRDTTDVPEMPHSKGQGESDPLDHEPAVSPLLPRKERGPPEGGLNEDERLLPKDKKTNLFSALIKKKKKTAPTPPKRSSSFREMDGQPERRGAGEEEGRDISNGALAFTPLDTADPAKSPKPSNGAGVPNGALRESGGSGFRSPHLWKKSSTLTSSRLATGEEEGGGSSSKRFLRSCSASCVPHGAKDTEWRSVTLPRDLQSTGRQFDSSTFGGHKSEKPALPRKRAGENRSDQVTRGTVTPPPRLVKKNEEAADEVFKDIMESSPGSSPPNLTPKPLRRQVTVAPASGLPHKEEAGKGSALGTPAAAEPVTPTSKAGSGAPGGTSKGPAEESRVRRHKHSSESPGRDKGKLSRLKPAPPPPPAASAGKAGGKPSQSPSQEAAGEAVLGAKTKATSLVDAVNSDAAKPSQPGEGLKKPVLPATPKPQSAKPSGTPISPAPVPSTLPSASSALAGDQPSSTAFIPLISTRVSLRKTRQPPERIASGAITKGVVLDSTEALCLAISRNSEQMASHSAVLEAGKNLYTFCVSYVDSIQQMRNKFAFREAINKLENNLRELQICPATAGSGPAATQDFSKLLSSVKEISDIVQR
# Assay Text: Western blot degradation of c-ABL in K562 cells
# Assay type: cell-based
# Design: Western blot was used to detect the expression of BCR-ABL and c-ABL protein in K562 cells; endogenous in cells; host or cells: K562
# Condition Notes: 16 hours, 1 nM-10 μM
Property Name: DC50

Ask: What does the record list as DC50 for COc1cc(Nc2c(C#N)cnc3cc(OCCCN4CCN(C(=O)CCOCCOCCOCCOCCNc5cccc6c5C(=O)N(C5CCC(=O)NC5=O)C6=O)CC4)c(OC)cc23)c(Cl)cc1Cl (centres unmarked) ?
Result: 10 to 100 nM

Ask: What does the record list as DC50 for Cc1nc(Nc2ncc(C(=O)Nc3c(C)cccc3Cl)s2)cc(N2CCN(C(=O)CCCCCCCCC(=O)N[C@H](C(=O)N3C[C@H](O)C[C@H]3C(=O)NCc3ccc(-c4scnc4C)cc3)C(C)(C)C)CC2)n1 ?
Result: 10 to 100 nM

Next:
Ask: What does the record list as DC50 for Cc1nc(Nc2ncc(C(=O)Nc3c(C)cccc3Cl)s2)cc(N2CCN(C(=O)CCC(=O)Nc3cccc4c3CN(C3CCC(=O)NC3=O)C4=O)CC2)n1 (centres unmarked) ?
Result: 100 to 1000 nM

Ask: What does the record list as DC50 for Cc1nc(Nc2ncc(C(=O)Nc3c(C)cccc3Cl)s2)cc(N2CCN(C(=O)CCOCCNc3cccc4c3C(=O)N(C3CCC(=O)NC3=O)C4=O)CC2)n1 (centres unmarked) ?
Result: 1 to 10 nM

Ask: What does the record list as DC50 for COc1cc(Nc2c(C#N)cnc3cc(OCCCN4CCN(C(=O)CNc5cccc6c5C(=O)N(C5CCC(=O)NC5=O)C6=O)CC4)c(OC)cc23)c(Cl)cc1Cl (centres unmarked) ?
Result: 10 to 100 nM

Ask: What does the record list as DC50 for Cc1nc(Nc2ncc(C(=O)Nc3c(C)cccc3Cl)s2)cc(N2CCN(C(=O)CCCCCNc3cccc4c3C(=O)N(C3CCC(=O)NC3=O)C4=O)CC2)n1 (centres unmarked) ?
Result: 1 to 10 nM

Ask: What does the record list as DC50 for COc1cc(Nc2c(C#N)cnc3cc(OCCCN4CCN(C(=O)CCOCCOCCOCCOCCOCCNc5cccc6c5C(=O)N(C5CCC(=O)NC5=O)C6=O)CC4)c(OC)cc23)c(Cl)cc1Cl (centres unmarked) ?
Result: 100 to 1000 nM
